Biological target: His6-AspH315–758 (human aspartate/asparagine-β-hydroxylase, AspH) (Homo sapiens, UniProt Q12797)
Construct: N-Terminally His6-tagged human AspH315–758 (His6-AspH315–758) was produced in E. coli BL21 (DE3) cells; made in house; host or cells: E. coli BL21 (DE3), pET-28a(+) vector
Sequence (Q12797 315-758): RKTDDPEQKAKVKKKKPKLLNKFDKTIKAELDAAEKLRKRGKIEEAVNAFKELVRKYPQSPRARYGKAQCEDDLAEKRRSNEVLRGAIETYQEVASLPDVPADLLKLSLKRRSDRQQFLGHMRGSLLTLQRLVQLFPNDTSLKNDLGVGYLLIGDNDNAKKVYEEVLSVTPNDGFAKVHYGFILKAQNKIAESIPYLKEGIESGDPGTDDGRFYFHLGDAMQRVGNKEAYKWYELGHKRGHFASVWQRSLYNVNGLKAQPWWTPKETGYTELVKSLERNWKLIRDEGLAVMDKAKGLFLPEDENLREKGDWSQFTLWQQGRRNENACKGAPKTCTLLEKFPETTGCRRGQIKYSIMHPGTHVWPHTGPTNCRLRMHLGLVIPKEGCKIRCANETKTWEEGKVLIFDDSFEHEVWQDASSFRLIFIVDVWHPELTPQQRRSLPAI
Test: SPE-MS AspH inhibition assay (LOPAC screen at fixed 20 μM and IC50 dose-response), hydroxylation of cyclic peptide hFX-CP101–119
Format: biochemical
Conditions: IC50 [μM]
READOUT_NAME: IC50 (µM)
Numbers only, in µM.

{"COMPOUND": "O=C(O)CNC(=O)c1c(O)c2ccccc2n(OCC2CC2)c1=O [Desidustat, desidustat, reference compound]", "REPORTED": 16.3}

Alright, here's another compound for you.
Task item: Provide IC50 value for the following compound: CNc1ccc2oc(C[C@H]3O[C@@]4(CC[C@H]3C)O[C@H]([C@H](C)C(=O)c3ccc[nH]3)[C@H](C)C[C@H]4C)nc2c1C(=O)O [Calcimycin, calcimycin, reference compound]
Reply: 4.19

###

Target: His6-AspH315–758 (human aspartate/asparagine-β-hydroxylase, AspH) (Homo sapiens)
Construct: N-Terminally His6-tagged human AspH315–758 (His6-AspH315–758) was produced in E. coli BL21 (DE3) cells; made in house; host or cells: E. coli BL21 (DE3), pET-28a(+) vector
Assay: SPE-MS AspH inhibition assay (LOPAC screen at fixed 20 μM and IC50 dose-response), hydroxylation of cyclic peptide hFX-CP101–119
Type: biochemical
Details: LOPAC compound at fixed 20 uM; substrate conversion, plate 1
Where a name gives a salt, the structure may show the parent alone.
READOUT_NAME: Plate 1 (% conversion) (%)
One number for each entry, in %.

Please review the following examples before continuing.
{"COMPOUND": "Nc1nc(Cl)nc2c1ncn2[C@@H]1O[C@H](CO)[C@@H](O)[C@H]1O", "Plate 1 (% conversion) (%)": 37.51}
{"COMPOUND": "NC(=O)c1ccccc1 [Benzamide]", "Plate 1 (% conversion) (%)": 37.44}
{"COMPOUND": "CC1=C(/C=C/C(C)=C/C=C/C(C)=C/C=C/C=C(C)/C=C/C=C(C)/C=C/C2=C(C)C(=O)[C@@H](O)CC2(C)C)C(C)(C)C[C@H](O)C1=O", "Plate 1 (% conversion) (%)": 36.68}

Kindly give each listed record's Plate 1 (% conversion).
1. CN(c1ccccc1CNc1nc(Nc2ccc3c(c2)CC(=O)N3)ncc1C(F)(F)F)S(C)(=O)=O.O [PF-431396 hydrate]
2. N[C@@H]1CON=C1O
3. N[C@@H](C(=O)N[C@@H]1C(=O)N2C(C(=O)O)=C(Cl)CS[C@H]12)c1ccccc1
4. O=c1ccc2c(OCCCCc3ccccc3)c3ccoc3cc2o1

Reply:
1. 41.13
2. 38.55
3. 27.82
4. 34.20

Please supply Plate 1 (% conversion) for each of the following items, keeping them in order.
1. CN(C)CCCC1(c2ccc(F)cc2)OCc2cc(C#N)ccc21 (centres unmarked) [Citalopram hydrobromide]
2. Cc1nnc(SCC2=C(C(=O)O)N3C(=O)[C@@H](NC(=O)Cn4cnnn4)[C@H]3SC2)s1 [Cefazolin sodium]
3. Cl.Cl.Fc1ccc([C@@H]2CCNC[C@H]2COc2ccc3c(c2)OCO3)cc1.Fc1ccc([C@@H]2CCNC[C@H]2COc2ccc3c(c2)OCO3)cc1.O
4. COc1cc2nc(N(C)CCCNC(=O)C3CCCO3)nc(N)c2cc1OC (centres unmarked) [Alfuzosin hydrochloride]
5. Clc1ccc2c(c1)C(N1CCNCC1)=Nc1ccccc1O2
6. O=C1NC(=O)c2cc(Nc3ccccc3)c(Nc3ccccc3)cc21

Reply:
40.31
32.53
43.42
40.03
38.88
38.28

Quick batch: Plate 1 (% conversion) for everything below.
1. C[N+](C)(C)CCOC(N)=O
2. Clc1ccccc1C(c1ccccc1)(c1ccccc1)n1ccnc1

Reply:
36.94
45.42

State the recorded Plate 1 (% conversion) for every item in the following list.
1. O=C(O)c1ccccc1Nc1ccccc1
2. CCCCCCCCCCCCCCCCCCc1ccc(C(=O)/C=C/C(=O)O)cc1

Reply:
1. 28.96
2. 38.35
